Source: patent US20140038889A1

Assay: Solubility of Compound 1
Assay type: physicochemical
Details: water; H2O
property.measured: solubility

[[record]]
structure_smiles_string = "Cc1nc(S(C)(=O)=O)ccc1Oc1ncnc(OC2CCN(C(=O)OC3(C)CC3)CC2)c1F"
val = "< 1 µg/mL"


----------
Target: GPR119 receptor (Homo sapiens)
Sequence (Q8TDV5 2-335): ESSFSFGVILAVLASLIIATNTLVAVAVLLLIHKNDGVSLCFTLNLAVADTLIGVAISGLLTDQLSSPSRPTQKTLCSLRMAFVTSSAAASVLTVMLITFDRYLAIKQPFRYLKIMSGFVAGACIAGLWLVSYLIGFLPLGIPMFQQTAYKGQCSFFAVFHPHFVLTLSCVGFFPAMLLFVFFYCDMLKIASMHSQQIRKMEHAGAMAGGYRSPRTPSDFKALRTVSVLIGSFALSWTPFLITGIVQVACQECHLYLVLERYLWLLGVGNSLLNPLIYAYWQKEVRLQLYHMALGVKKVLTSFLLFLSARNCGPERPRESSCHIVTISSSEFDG
Experiment: HTRF cAMP detection assay in CHO-K1 cells stably expressing the GPR119 receptor
Details: CHO-K1 cells stably expressing GPR119, 1 h incubation
property.measured: EC50 (nM)

[[record]]
structure_smiles_string = "Cc1nc(S(C)(=O)=O)ccc1Oc1ncnc(OC2CCN(C(=O)OC3(C)CC3)CC2)c1F"
property_measured = "EC50"
val = 14.9

